pIC50: −log10 of the molar value.
System: Neprilysin (Homo sapiens, UniProt P08473) | Read-out: pIC50 | Origin: multiple publications
Sequence (P08473 whole entry): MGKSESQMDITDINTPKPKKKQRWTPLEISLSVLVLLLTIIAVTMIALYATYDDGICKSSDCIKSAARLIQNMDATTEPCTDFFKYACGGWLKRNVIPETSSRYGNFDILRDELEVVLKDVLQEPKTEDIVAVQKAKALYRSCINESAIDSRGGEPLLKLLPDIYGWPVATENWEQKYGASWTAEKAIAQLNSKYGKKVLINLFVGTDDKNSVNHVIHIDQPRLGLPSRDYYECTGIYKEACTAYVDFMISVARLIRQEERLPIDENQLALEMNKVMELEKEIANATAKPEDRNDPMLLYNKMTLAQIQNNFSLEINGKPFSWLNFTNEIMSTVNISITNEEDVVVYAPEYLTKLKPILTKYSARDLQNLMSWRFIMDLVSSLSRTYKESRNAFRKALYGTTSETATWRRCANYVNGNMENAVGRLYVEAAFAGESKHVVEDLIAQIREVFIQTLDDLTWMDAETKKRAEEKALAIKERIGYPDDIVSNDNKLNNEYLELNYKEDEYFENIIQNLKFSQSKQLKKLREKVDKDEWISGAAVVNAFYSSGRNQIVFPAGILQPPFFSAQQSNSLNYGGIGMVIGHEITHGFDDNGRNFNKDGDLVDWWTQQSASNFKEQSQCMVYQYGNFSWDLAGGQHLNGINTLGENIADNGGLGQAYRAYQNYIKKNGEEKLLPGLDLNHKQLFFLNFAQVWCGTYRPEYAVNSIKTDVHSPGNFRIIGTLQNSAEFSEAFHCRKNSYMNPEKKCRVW

Below are worked cases with known answers.
| Compound | Assayed System | pIC50 |
| --- | --- | --- |
| CC(C)C[C@H](CC(=O)N[C@@H](CO)C(=O)O)C(=O)O | Neprilysin (Homo sapiens, UniProt P08473) | < 3.00 |
| O=C(NC1CCc2cccc3c2N(C1=O)[C@H](C(=O)O)C3)[C@@H](S)C1CCCCC1 (stereo partly drawn) | Neprilysin (Homo sapiens, UniProt P08473) | < 6.00 |

// query Quick one: pIC50 of O=C(O)[C@H](Cc1ccc(-c2ccccc2)cc1)NC(=O)[C@H](Cc1cnc[nH]1)NCP(=O)(O)O ?
// result < 6.00
